Data provenance is the supplement of paper PMC10567573.

Recorded measurements of protein stability index, one per entry
B1: MLH1 (parent)
chain: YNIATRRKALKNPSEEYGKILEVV

Variants of: B1
Assay: protein stability index of a GFP-peptide fusion (GPS, HEK-293T) (PSI 1-6); higher = more stable;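 also: lentivirally expressed fusions sorted by FACS into six bins by GFP to DsRed ratio, PSI derived from sequencing read proportions per bin multiplied by bin number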
Settings: c terminus: a fixed tail appended
Hey, just send me the number, nothing else.

Here is how some variants turned out for protein stability index.
mutation_spec=L10V quantity_measured="protein stability index" numeric_readout=3.07
mutation_spec=G18K quantity_measured="protein stability index" numeric_readout=2.97
mutation_spec=I3S quantity_measured="protein stability index" numeric_readout=3

Identify protein stability index associated with the variant "I3M"
3.08
